recorded.conditions: in acetonitrile, 295.4 K

# chem.smiles, solubility (mole fraction)
records = [
    ("CCn1c2ccccc2c2cc(-n3nncc3-c3ccccc3)ccc21", 0.00335),
]

* * *

recorded.conditions: in isopropanol, 279.4 K

# chem.smiles, solubility (mole fraction)
measured = [
    ("CCn1c2ccccc2c2cc(-n3nncc3-c3ccccc3)ccc21", 0.000218),
]

* * *

recorded.conditions: in n-propanol, 319.4 K
outcome.measure: solubility (mole fraction)

# chem.smiles, result
records = [
    ("CCn1c2ccccc2c2cc(-n3nncc3-c3ccccc3)ccc21", 0.00314),
]

* * *

recorded.conditions: in sec-butanol, 291.7 K

# chem.smiles, solubility (mole fraction)
records = [
    ("CCn1c2ccccc2c2cc(-n3nncc3-c3ccccc3)ccc21", 0.000592),
]
